B1: tRNA (parent)
chain: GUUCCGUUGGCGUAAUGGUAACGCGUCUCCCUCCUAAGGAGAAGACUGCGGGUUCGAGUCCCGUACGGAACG

# Variants of: B1
# protocol-summary: yeast fitness relative to wild type (ratio to wild type); higher = fitter; tRNA-Arg(CCU), competitive growth, 37 C, YPD
Fewer inactive variants are shown than the library holds.
For each record, write down the corresponding yeast fitness.

Input line: If you can, please state the reported yeast fitness value of GUUACGUUGGCGUAAUGGUAACGCGUCUCCGUCCUAAGGAGAAGACUGCGGGUUCGAGUCCCGUACGGAACG .
Output line: 0.758

Input line: If you can, please state the reported yeast fitness value of GUUCCGUUCGCGUAAUGGUAACGCGUCUCCCUCCUAAGGAGAAGACUGAGGGUUCGAGUCCCGUACGGAACG .
Output line: 0.596

Input line: If you can, please state the reported yeast fitness value of GUUCCGUUGGCGUAAUGGUAACGCGUCUCCCUCCUGAGGAGAAGACUGCGGGUUCGAGUCUCGUACGGCACG .
Output line: 0.693

Input line: If you can, please state the reported yeast fitness value of GUUCCGUUAGCGUAAUGGUAACGCGUCUCCCUCCUUAGGAGAAGACUGCGAGUUCGAGUCGCGUACGGAACG .
Output line: ≤ 0.5

Input line: If you can, please state the reported yeast fitness value of GUGCCGUUGGCGUAAAGGUAACGCGUCUCCCUCCUAAGGAGAAGACUGCGGGUUCGAGUCCCGUACGGAACG .
Output line: 0.938

Input line: If you can, please state the reported yeast fitness value of GUUUCGUUGGCGUUAUGGUACCGCGUCUCCCUCCUAAGGAGAAGCCUGCGGGUUCGAGUCCCGUACGGUACG .
Output line: ≤ 0.5

Input line: If you can, please state the reported yeast fitness value of GUUCGGAUGGCGUUAUGGUAACGCGUCUCCCUCCUAAGGAGAAGACUGCGGGUUCGAGUCCCGUACGGAACG .
Output line: 0.624

Input line: If you can, please state the reported yeast fitness value of GUUCCGUUGGUGUAAUGGUAUCGCGUCUCCCUCCUAAGGAGAAGACUGCGGGUUCGAGUCCCGUACGGCACG .
Output line: 0.772

Input line: If you can, please state the reported yeast fitness value of GUUCCGUUGGCGUAAUGGUAACGCGUCUUCCCCCUAAGGAGAAGACUGCGGGUUCGAGUCCCGUACGGAACG .
Output line: 0.981

Input line: If you can, please state the reported yeast fitness value of GUUACGUUGACGUAAUGGUAACGCGUCUCCCUCCUUAGGAGAAGACUGCGGGUUCGAGUCCCGUACGGAACG .
Output line: ≤ 0.5

Input line: If you can, please state the reported yeast fitness value of GUUCAGUUGGCGUAAUGCAAACGCGUAUCCCUACUAAGGAGAAGACUGCGGGUUCGAGUCGCGUACGGAGCG .
Output line: ≤ 0.5

Input line: If you can, please state the reported yeast fitness value of GUUCGGUUGGCGUAAUGGUAACGCGUCUCCCUCCUAAGGAGAAAACUGCGGGUUGGAGUCCCGUACGGAACG .
Output line: 0.527

Input line: If you can, please state the reported yeast fitness value of GUUCCGUUGGCGUAAUGGUAACGCGUCUACCUCCUAAGGAGAAGCCUCGGGGUUCGAGUCCCGUACGGAACG .
Output line: ≤ 0.5

Input line: If you can, please state the reported yeast fitness value of GUUCCGUUGGCGUAAUGGUAACGCGUCUCCCUCCUAAGGGGAAGACUGCGGGAUCGAGUCCCAUACGGAACG .
Output line: ≤ 0.5

Input line: If you can, please state the reported yeast fitness value of GUUCCGUUGGCGUAAUAGUAAUGCGUCCCCCUCCUAAGGAGAAGACUGCGGGUGCGCGUCCCGUACGGAACG .
Output line: ≤ 0.5

Input line: If you can, please state the reported yeast fitness value of GUUCCGUUGGCGUAAUGGUAACGUGUCUCGCUCCUAAGGAGAAGCCUGCGGGUUCGAGUCCCGUACGGACCG .
Output line: ≤ 0.5

Input line: If you can, please state the reported yeast fitness value of GUUCCGUUGGCGUAGUGGUAAGGCGUCUCCCUCCUUAGGGGAAGACUGCGGGUUCGAGACCCGUACGGAACG .
Output line: ≤ 0.5

Input line: If you can, please state the reported yeast fitness value of GUUCCGUUGGAGUAAUGGUAACGCCUCUUCCUCCUAAGGAGAAGACUGCGGGUUCGGGUCCCGUACGGAACG .
Output line: ≤ 0.5

Input line: If you can, please state the reported yeast fitness value of GUUCCGUUAGCGUAAUGGUAACGCGUCUCACUCCUAAGAAGAAGACAGCGGGUUCGAGUCCCCUACGGAACG .
Output line: ≤ 0.5

Input line: If you can, please state the reported yeast fitness value of GAUCAGUUGGCGUAAUGGUAAGGUGUCUCCCUCCUAAGGAGAAGACUGCCGGUUCGAGUCCCGUACGGAACG .
Output line: ≤ 0.5

Input line: If you can, please state the reported yeast fitness value of GUUCCGUUGGCGUAAUGGUCGCGCGUCUCCCUCCUAAGGAGAAGACUGCGGGUUCGAGUCCCGUACGGAACG .
Output line: 0.953

Input line: If you can, please state the reported yeast fitness value of GUUCCGUUGGCGUAAUGGUAAUGCGUCUCCCUCCUCAGGAGAAGACUGCGGGUCCGUGUCCCGUACGGAACG .
Output line: ≤ 0.5

Input line: If you can, please state the reported yeast fitness value of GUUCCGUUGGCGUAAUGAUAACGCGUCUCCCUCCUAAGGAGAAGACUGCGGGAGCGAGUCCCGUACGGAACG .
Output line: ≤ 0.5
